The entries below come with measured IC50 values attached.
- measuredTarget: ALK4 (Homo sapiens, UniProt P36896)
- Sequence (P36896 24-505): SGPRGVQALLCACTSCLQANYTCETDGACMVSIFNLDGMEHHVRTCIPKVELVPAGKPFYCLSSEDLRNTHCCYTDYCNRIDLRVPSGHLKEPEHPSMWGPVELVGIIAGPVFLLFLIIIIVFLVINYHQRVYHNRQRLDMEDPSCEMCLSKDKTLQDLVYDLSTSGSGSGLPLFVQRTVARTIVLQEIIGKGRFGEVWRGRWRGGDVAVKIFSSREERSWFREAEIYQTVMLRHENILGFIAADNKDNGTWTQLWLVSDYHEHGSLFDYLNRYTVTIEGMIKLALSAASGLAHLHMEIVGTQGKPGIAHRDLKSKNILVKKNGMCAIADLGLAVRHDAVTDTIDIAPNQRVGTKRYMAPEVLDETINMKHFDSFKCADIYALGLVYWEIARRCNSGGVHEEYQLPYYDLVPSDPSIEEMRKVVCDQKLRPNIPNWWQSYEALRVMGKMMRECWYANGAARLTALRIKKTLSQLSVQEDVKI
- assayComment: TR-FRET enzymatic ALK kinase assay, ALK4

Here is how some compounds turned out for IC50.
>>> obsvalue("CC(O)c1cccc(-c2cnn3cc(-c4ccc(CCN5CCCC(O)C5)cc4)cnc23)c1 (stereo not shown)")
"> 10 µM"
>>> obsvalue("NS(=O)(=O)c1ccc(-c2cnn3cc(-c4ccc(CCN5CCCCC5)cc4)cnc23)c2ccccc12")
"> 10 µM"
>>> obsvalue("NC(=O)c1ccc(-c2cnn3cc(-c4ccc(N5C[C@@H]6C[C@H]5CN6)cc4)cnc23)c2ccccc12")
"2.99 µM"
>>> obsvalue("CC(O)c1cccc(-c2cnn3cc(-c4ccc(OCCN5CCCCC5)cc4)cnc23)c1 (stereo not shown)")
"> 10 µM"
>>> obsvalue("CS(=O)(=O)c1cccc(-c2cnn3cc(-c4ccc(OC5(CN6CCC(O)C6)CC5)cc4)cnc23)c1 (stereo not shown)")
"> 10 µM"
>>> obsvalue("CC(O)c1cccc2c(-c3cnn4cc(-c5ccc(N6[C@H](C)CNC[C@@H]6C)cc5)cnc34)cccc12 (stereo partly shown)")
"16.3 µM"
>>> obsvalue("N/C(=N/O)c1ccc(-c2cnn3cc(-c4ccc(N5CCNCC5)cc4)cnc23)c2ccccc12")
"30.4 µM"
>>> obsvalue("NS(=O)(=O)c1cccc(-c2cnn3cc(-c4ccc(CCN5CCCCC5)cc4)cnc23)c1")
"> 10 µM"

Fill in: ALK4 (Homo sapiens, UniProt P36896) IC50 for CC(C)(CN1CCCCC1)Oc1ccc(-c2cnc3c(-c4cccc(S(N)(=O)=O)c4)cnn3c2)cc1 = 6 µM
